Parameter LAPHEG 50 (ug/cm2), percent control: see the listing below.
- Tested on: Beet Armyworm (Spodoptera exigua)
- Assay info: Insecticidal diet-surface test for beet armyworm
- Format: in vivo
- Measurement parameters: second-instar beet armyworm, 50 ug/cm2 on diet surface, 5 days after treatment, dead insects of 8

{"Compound string": "FC(F)C(F)(F)Oc1cccc(Nc2cc(Cl)nc(N/N=C/c3ccc(C(F)(F)F)nc3)n2)c1", "LAPHEG 50 (ug/cm2), percent control (%)": 75}
{"Compound string": "FC(F)(F)c1ccc(/C=N/Nc2nc(Cl)cc(Nc3ccc(Cl)cc3)n2)cc1", "LAPHEG 50 (ug/cm2), percent control (%)": 100}
{"Compound string": "Fc1ccc(Nc2cc(C(F)(F)F)nc(N/N=C/c3ccc(C(F)(F)F)nc3)n2)cc1C(F)(F)F", "LAPHEG 50 (ug/cm2), percent control (%)": 100}
{"Compound string": "Fc1ccc(Nc2cc(NN=Cc3ccc(OC(F)(F)F)cc3)ncn2)cc1C(F)(F)F", "LAPHEG 50 (ug/cm2), percent control (%)": 100}
{"Compound string": "Fc1ccc(Nc2nc(Cl)nc(N/N=C/c3ccc(OC(F)(F)F)nc3)c2Cl)cc1C(F)(F)F", "LAPHEG 50 (ug/cm2), percent control (%)": 100}
{"Compound string": "Clc1ccc(/C=N/Nc2nc(Cl)cc(Nc3cccc(Br)c3)n2)cc1", "LAPHEG 50 (ug/cm2), percent control (%)": 0}
{"Compound string": "Clc1cccc(Nc2cc(Cl)nc(N/N=C/c3ccc(N4CCCCC4)cc3)n2)c1", "LAPHEG 50 (ug/cm2), percent control (%)": 0}
